Test system: human cancer cell lines (MDA-MB-435 and three colon cancer cells)
run-description: MTT assay, panel of breast, colon and prostate cell lines (Example V)
Assay type: cell-based
assay-setup: Homo sapiens, MDA-MB-435; representative breast, colon, and prostate cell lines; MTT assay; read-out: IC50 values range
Where a name gives a salt, the structure may show the parent alone.
Could you please report measured IC50 for the items listed next?

Response field IC50 (human cancer cell lines (MDA-MB-435 and three colon cancer cells)) for item O=C(NNc1nc2cc(F)ccc2n2cccc12)c1cnc2ccccc2n1 [SC166′, hydrochloride] : 8 to 15 µM

Response field IC50 (human cancer cell lines (MDA-MB-435 and three colon cancer cells)) for item O=C(NNc1nc2cccc(F)c2n2cccc12)c1cnccn1 [SC161′, hydrochloride] : 0.3 to 4 µM

====

Where a name gives a salt, the structure may show the parent alone.
Could you please report measured melting point for the items listed next?

Entry O=C(NNc1nc2cccc(F)c2n2cccc12)c1cnccn1 (as salt: hydrochloride) [SC161′] , melting point reported as 248 °C (dec.)

Entry O=C(NNc1nc2ccccc2n2cccc12)c1ccc[nH]1 [SC141] , melting point reported as 210 to 212 °C

Entry O=C(NNc1nc2cc(F)ccc2n2cccc12)c1cnc2ccccc2n1 (as salt: hydrochloride) [SC166′] , melting point reported as 280 °C (dec.)

Entry O=C(NNc1nc2cc(F)ccc2n2cccc12)c1ccccn1 (as salt: hydrochloride) [SC160′] , melting point reported as > 280 °C (dec.)

Numbers sourced from patent US20110034472A1.
